- measurement_protocol: Changes over time of Z to E transition by 19F NMR
- Type: physicochemical
- conditions: 3 h, light 505 nm, 100 mM in DMSO
Labelling field: enter Met if recorded Z isomer, changes over time is less than 40%. Enter Not met if it equals or exceeds that cut-off.

State whether 40% exceeds Z isomer, changes over time recorded for COc1cc(/C=C/C(=O)c2cccc(/N=N/c3ccc(F)cc3F)c2)cc(OC)c1OC [Compound 17g] . Not met

State whether 40% exceeds Z isomer, changes over time recorded for COc1ccc(/C=C/C(=O)c2cccc(/N=N/c3ccc(F)cc3F)c2)cc1OC [Compound 17e] . Not met

State whether 40% exceeds Z isomer, changes over time recorded for COc1cc(/C=C/C(=O)c2cccc(/N=N/c3ccc(F)cc3F)c2)cc(OC)c1 [Compound 17f] . Not met

State whether 40% exceeds Z isomer, changes over time recorded for COc1cc(/C=C/C(=O)c2cccc(/N=N/c3ccc(F)cc3)c2)cc(OC)c1 [Compound 17b] . Met

State whether 40% exceeds Z isomer, changes over time recorded for COc1ccc(/C=C/C(=O)c2cccc(/N=N/c3ccc(F)cc3)c2)cc1OC [Compound 17a] . Met

State whether 40% exceeds Z isomer, changes over time recorded for COc1cc(/C=C/C(=O)c2cccc(/N=N/c3ccc(F)cc3)c2)cc(OC)c1OC [Compound 17c] . Met

###

- measurement_protocol: UV–VIS spectra of E/Z isomers in DMSO
- Assay type: physicochemical
- conditions: E isomer
Consider the following compounds; for each one, report its λmax n→π* (E).
Report the figure in nm without appending any unit label.

Look up λmax n→π* (E): COc1cc(/C=C/C(=O)c2cccc(/N=N/c3ccc(F)cc3)c2)cc(OC)c1 [Compound 17b] 442.1

Look up λmax n→π* (E): COc1cc(/C=C/C(=O)c2cccc(/N=N/c3ccc(F)cc3F)c2)cc(OC)c1 [Compound 17f] 441.9

Look up λmax n→π* (E): O=C(/C=C/c1ccc(Br)cc1)c1cccc(/N=N/c2c(F)cccc2F)c1 [Compound 17l] 448.6

Look up λmax n→π* (E): COc1cc(/C=C/C(=O)c2cccc(/N=N/c3c(F)cccc3F)c2)cc(OC)c1 [Compound 17j] 448.3

Look up λmax n→π* (E): O=C(/C=C/c1ccc(Br)cc1)c1cccc(/N=N/c2ccc(F)cc2)c1 [Compound 17d] 440.8

Look up λmax n→π* (E): O=C(/C=C/c1ccc(Br)cc1)c1cccc(/N=N/c2ccc(F)cc2F)c1 [Compound 17h] 441.2

###

- measurement_protocol: Changes over time of Z to E transition by 19F NMR
- Type: physicochemical
- conditions: 4 h, light 525 nm, 100 mM in DMSO
Consider the following compounds; for each one, report its Z isomer, changes over time.
Report the figure in % without appending any unit label.

Look up Z isomer, changes over time: O=C(/C=C/c1ccc(Br)cc1)c1cccc(/N=N/c2c(F)cccc2F)c1 [Compound 17l] 70.77

Look up Z isomer, changes over time: COc1cc(/C=C/C(=O)c2cccc(/N=N/c3c(F)cccc3F)c2)cc(OC)c1OC [Compound 17k] 70.95

Look up Z isomer, changes over time: COc1ccc(/C=C/C(=O)c2cccc(/N=N/c3c(F)cccc3F)c2)cc1OC [Compound 17i] 69.59

Look up Z isomer, changes over time: COc1cc(/C=C/C(=O)c2cccc(/N=N/c3c(F)cccc3F)c2)cc(OC)c1 [Compound 17j] 71

Entry source: paper PMC12844124
